Hi there, I'd appreciate the recorded Percent Effect for every entry that follows.
test system: Wolbachia pipientis; assay: Anti-Wolbachia Cell-Based Screen; type: functional; set-up: scale not given: in the data most compounds retested in dose-response had high values; conditions: 5 µM
Out of some 48,000 compounds screened, about 13,000 (27%) showed an effect of 50% or more. Some of the results follow.
Provide the reading as a plain figure in %.

Q: I am curious: what Percent Effect value has been reported for `Cc1nc(O)cc(CCNc2nccc(CCC(F)(F)F)n2)n1` ?
A: 19.69

Q: I am curious: what Percent Effect value has been reported for `Cc1ccc(OCC(=O)NS(=O)(=O)c2c(C)noc2C)cc1C` ?
A: 20.27

Q: I am curious: what Percent Effect value has been reported for Cc1ccccc1-n1cc(-c2ccnc(NC(CO)C(C)C)n2)cn1 (centres undefined) ?
A: -0.3825

Q: I am curious: what Percent Effect value has been reported for `N#CCc1ccc(OCC(=O)NS(=O)(=O)c2cccs2)cc1` ?
A: 5.016

* * *

Hi there, I'd appreciate the recorded Percent Effect for every entry that follows.
system: Wolbachia pipientis; test: Anti-Wolbachia Cell-Based Screen; type: functional; design: scale not given: in the data most compounds retested in dose-response had high values; details: 5 µM
The whole screen tested about 48,000 compounds, of which about 13,000 (27%) showed an effect of 50% or more. The list shows a part of the results.
Provide the reading as a plain figure in %.

Q: So what Percent Effect did `Cc1nc(-c2ccc(S(=O)(=O)N3CCSCC3)cc2)co1` get with Wolbachia pipientis?
A: -2.351

Q: So what Percent Effect did CCOc1ccc(C(=O)N2CCCCC2Cn2nc(C)cc2C)cn1 (centres undefined) get with Wolbachia pipientis?
A: 118.2

Q: So what Percent Effect did O=C(NC1CCC1)C1CCC2(CN(C(=O)c3ccno3)C2)O1 (centres undefined) get with Wolbachia pipientis?
A: 2.059

Q: So what Percent Effect did `Cc1cnn(CCNCc2cc(-c3ccccc3)no2)c1` get with Wolbachia pipientis?
A: 2.44

Q: So what Percent Effect did `COCCc1noc(-c2cn(CCc3ccccc3)nn2)n1` get with Wolbachia pipientis?
A: -16.95

Q: So what Percent Effect did CCOC(C)c1nc(COc2nc(C)no2)cs1 (centres undefined) get with Wolbachia pipientis?
A: -4.126

Q: So what Percent Effect did CCN(C(=O)NCc1ccc(C)cc1OC)C(C)c1cccnc1 (centres undefined) get with Wolbachia pipientis?
A: 2.223

Q: So what Percent Effect did `COC(=O)[C@H]1CN(C(C)=O)CCN1C(C)=O` get with Wolbachia pipientis?
A: -4.652

Q: So what Percent Effect did CCC(CO)N(Cc1ccccn1)C(=O)c1ccc(F)c(F)c1 (centres undefined) get with Wolbachia pipientis?
A: -4.122

Q: So what Percent Effect did CC(NC(N)=O)C(=O)N(C)CCCc1cc(-c2ccccc2)no1 (centres undefined) get with Wolbachia pipientis?
A: -0.2623

Q: So what Percent Effect did `CN(Cc1ccc(Cl)cc1)S(=O)(=O)N(C)Cc1cnn(C)c1` get with Wolbachia pipientis?
A: -1.179

Q: So what Percent Effect did CN(Cc1cc[nH]n1)C(=O)C1CC(=O)N(Cc2ccncc2)C1 (centres undefined) get with Wolbachia pipientis?
A: 23.6

Q: So what Percent Effect did `Fc1cccc(-c2n[nH]cc2-c2nc(CN3CCOCC3)no2)c1` get with Wolbachia pipientis?
A: 25.75

Q: So what Percent Effect did COCCN1CCN(CC(=O)N(C)Cc2ccccc2)CC1C (centres undefined) get with Wolbachia pipientis?
A: 2.857

* * *

Hi there, I'd appreciate the recorded Percent Effect for every entry that follows.
system: Wolbachia pipientis; experiment: Anti-Wolbachia Cell-Based Screen; assay type: functional; parameters: scale not given: in the data most compounds retested in dose-response had high values; conditions: 5 µM
Out of some 48,000 compounds screened, about 13,000 (27%) showed an effect of 50% or more. The list shows a part of the results.
Provide the reading as a plain figure in %.

Q: So what Percent Effect did `C[C@@H]1CN(C2CCN(Cc3cnc(-c4cccs4)nc3)CC2)C[C@H](C)O1` get with Wolbachia pipientis?
A: -8.003

Q: So what Percent Effect did CC(C)N1CCCC2(CCN(C(=O)COCC(F)(F)C(F)F)C2)C1=O (stereo not drawn) get with Wolbachia pipientis?
A: -9.489

Q: So what Percent Effect did CS(=O)(=O)CCN1CCC2(CCCN(C3CCOCC3)C2=O)C1 (stereo not drawn) get with Wolbachia pipientis?
A: -2.931

Q: So what Percent Effect did `Cc1ncsc1CCC(=O)NC1CCN(Cc2cccs2)CC1` get with Wolbachia pipientis?
A: 5.127

Q: So what Percent Effect did `CCOC(=O)[C@]12CCCN(Cc3nccs3)C[C@H]1CN(S(C)(=O)=O)C2.O=C(O)C(F)(F)F` get with Wolbachia pipientis?
A: -4.113

Q: So what Percent Effect did `CN(CCO)Cc1nnc(C2CCN(C3CCCCC3)CC2)n1C` get with Wolbachia pipientis?
A: 6.504

Q: So what Percent Effect did Cc1cc(C(=O)N2CCC3(CCCN(CC4CC4)C3=O)C2)c(C)n1C (stereo not drawn) get with Wolbachia pipientis?
A: -3.042

Q: So what Percent Effect did `Cc1ccc(S(=O)(=O)Nc2ccc(-n3nnn(C)c3=O)cc2)cc1` get with Wolbachia pipientis?
A: 8.508

Q: So what Percent Effect did Cc1noc(C2CCN(C(C)c3nc(C4CC4)no3)CC2)n1 (stereo not drawn) get with Wolbachia pipientis?
A: 2.218

Q: So what Percent Effect did `CCOC(=O)[C@]12CCCN(Cc3nccs3)C[C@H]1CN(CCOC)C2.O=C(O)C(F)(F)F.O=C(O)C(F)(F)F` get with Wolbachia pipientis?
A: -1.05

Q: So what Percent Effect did `COc1ccc(-c2ccncc2)cc1CNC1CCCC1` get with Wolbachia pipientis?
A: -7.134

Q: So what Percent Effect did COc1ccccc1C(=O)N1CC(=O)N(CC(C)C)CC(O)C1 (stereo not drawn) get with Wolbachia pipientis?
A: 116.8

Q: So what Percent Effect did `CCOC(=O)[C@]12CCCN(Cc3cccs3)C[C@H]1CN(CCOC)C2.O=C(O)C(F)(F)F.O=C(O)C(F)(F)F` get with Wolbachia pipientis?
A: 131.5

Q: So what Percent Effect did CN1CCN(C(=O)N2CCC3(CCCN(C4CCOCC4)C3=O)C2)CC1 (stereo not drawn) get with Wolbachia pipientis?
A: 106.4

Q: So what Percent Effect did Fc1ccc(NC2CCCN(Cc3ccncc3)C2)cc1 (stereo not drawn) get with Wolbachia pipientis?
A: 7.502

Q: So what Percent Effect did `CCOC(=O)Cc1csc(NC(=O)c2ccc(=O)[nH]n2)n1` get with Wolbachia pipientis?
A: 95.75

Q: So what Percent Effect did COc1ccccc1OC1CN(C(=O)C2CNCC(=O)N2)C1 (stereo not drawn) get with Wolbachia pipientis?
A: 3.442

Q: So what Percent Effect did O=C(CN1CCOC(c2ccccc2C(F)(F)F)C1)NC1CC1 (stereo not drawn) get with Wolbachia pipientis?
A: 8.433

Q: So what Percent Effect did `CC(=O)N1CCCN(Cc2ccon2)c2ccccc21` get with Wolbachia pipientis?
A: 1.908

Q: So what Percent Effect did O=C(Nc1ccc(F)cc1)C1CNCCN1C(=O)CCO (stereo not drawn) get with Wolbachia pipientis?
A: -8.613

Q: So what Percent Effect did Cl.Cn1nc(C2CCCN(Cc3cc(F)cc(F)c3)C2)c2nccnc21 (stereo not drawn) get with Wolbachia pipientis?
A: 114.5

Q: So what Percent Effect did CNC(=O)NC(=O)CNC(CC(F)(F)F)c1ccc(F)cc1 (stereo not drawn) get with Wolbachia pipientis?
A: 13.05

Q: So what Percent Effect did O=C(C1CCOC1)N1C[C@H]2CN(Cc3cccnc3)C(=O)[C@H]2C1.O=C(O)C(F)(F)F (stereo partly drawn) get with Wolbachia pipientis?
A: 101.2

Q: So what Percent Effect did `CCOC(=O)[C@]12CCCN(Cc3cccs3)C[C@H]1CN(C(C)C)C2.O=C(O)C(F)(F)F.O=C(O)C(F)(F)F` get with Wolbachia pipientis?
A: 108.6

Q: So what Percent Effect did O=C(C1CCOC1)N1C[C@H]2CN(Cc3ccncc3)C(=O)[C@H]2C1.O=C(O)C(F)(F)F (stereo partly drawn) get with Wolbachia pipientis?
A: 94.79

Q: So what Percent Effect did Cc1c(C(=O)N2CCC3(CCCN(CC4CC4)C3=O)C2)ccn1C (stereo not drawn) get with Wolbachia pipientis?
A: -5.125

Q: So what Percent Effect did COc1ccccc1C(NC(=O)CN(C)C(C)C)c1noc(C)n1 (stereo not drawn) get with Wolbachia pipientis?
A: -26.87

Q: So what Percent Effect did N#Cc1cc(S(N)(=O)=O)ccc1NC1CCc2ccc(F)cc21 (stereo not drawn) get with Wolbachia pipientis?
A: -1.199

Q: So what Percent Effect did Cl.Cl.Cl.OC(CN1CCN(Cc2cccnc2)CC1)c1cccs1 (stereo not drawn) get with Wolbachia pipientis?
A: -1.04

Q: So what Percent Effect did `CCc1noc(CC)c1CNC(=O)Nc1ccc2[nH]nnc2c1` get with Wolbachia pipientis?
A: 5.627

Q: So what Percent Effect did Cl.Cn1nc(C2CCCN(Cc3ccc(F)c(F)c3)C2)c2nccnc21 (stereo not drawn) get with Wolbachia pipientis?
A: 94.15

Q: So what Percent Effect did `CCOC(=O)[C@]12CCCN(Cc3ccsc3)C[C@H]1CN(CCOC)C2.O=C(O)C(F)(F)F.O=C(O)C(F)(F)F` get with Wolbachia pipientis?
A: -11.63

Q: So what Percent Effect did `O=C(O)C(F)(F)F.O=C(c1ccsc1)N1C[C@H]2CN(Cc3cccnc3)C(=O)[C@H]2C1` get with Wolbachia pipientis?
A: -7.854
